Recorded inhibition at 100 µM by entry
- target.of.assay: human Dock5 (Homo sapiens, UniProt Q9H7D0)
- Construct: plasmid expressing the catalytic DHR2 domain of mouse or human Dock5; expressed in transfected cells; host or cells: 293T cells
- Sequence (Q9H7D0 1231-1642 limits assumed): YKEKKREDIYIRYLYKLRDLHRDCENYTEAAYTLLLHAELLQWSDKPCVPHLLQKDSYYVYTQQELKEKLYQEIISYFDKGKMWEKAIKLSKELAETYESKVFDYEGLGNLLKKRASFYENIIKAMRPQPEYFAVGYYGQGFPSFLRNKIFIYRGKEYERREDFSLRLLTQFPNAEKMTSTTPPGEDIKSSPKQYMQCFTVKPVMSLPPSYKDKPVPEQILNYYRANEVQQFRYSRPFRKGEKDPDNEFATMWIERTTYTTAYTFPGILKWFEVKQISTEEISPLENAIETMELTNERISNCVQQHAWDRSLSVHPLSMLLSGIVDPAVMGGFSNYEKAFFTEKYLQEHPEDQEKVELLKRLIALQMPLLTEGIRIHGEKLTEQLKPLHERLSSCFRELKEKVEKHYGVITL
- measurement.notes: Pull down assay of Rac activation by human Dock5 DHR2 in transfected 293T cells
- Format: cell-based
- experimental.setup: HEK-293T, Table 3; human Dock5; test concentration 100 µM, 1 hour; replicate values; read-out: Inhibition

compound	inhibition at 100 µM [%]
CN(C)c1ccc(CN2CC[C@@]3(C2)[C@@H](O)CN(c2ccccc2)S3(=O)=O)cc1	90
O=S1(=O)N(C2CCCCC2)C[C@H](O)[C@]12CCN(Cc1ccccc1)C2	70
O=S1(=O)N(c2ccccc2)C[C@H](O)[C@]12CCN(Cc1cccs1)C2	35
Cc1noc(C)c1CN1CC[C@@]2(C1)[C@@H](O)CN(c1ccccc1)S2(=O)=O	40
O=S1(=O)N(c2ccccc2)C[C@H](O)[C@]12CCN(Cc1cc3ccccc3o1)C2 (racemic)	100
O=S1(=O)N(Cc2ccccc2)C[C@H](Oc2ccccn2)[C@]12CCN(Cc1ccccc1)C2	20
O=S1(=O)N(c2ccccc2)C[C@H](O)[C@]12CCN(Cc1ccc3[nH]ccc3c1)C2	98
O=S1(=O)N(c2cccc(Cl)c2)C[C@H](O)[C@]12CCN(Cc1ccccc1)C2	80
O=S1(=O)N(c2ccccc2)C[C@H](O)[C@]12CCN(C1CCCCCC1)C2	20
O=S1(=O)N(c2cccc(Cl)c2)C[C@@H](O)[C@]12CCN(Cc1ccccc1)C2	70
CO[C@H]1CN(Cc2ccccc2)S(=O)(=O)[C@@]12CCN(Cc1ccccc1)C2	35
Cn1cc(CN2CC[C@@]3(C2)[C@@H](O)CN(c2ccccc2)S3(=O)=O)c2ccccc21 (racemic)	100
COc1cc(CN2CC[C@@]3(C2)[C@@H](O)CN(c2ccccc2)S3(=O)=O)cc(OC)c1	35
